- test: Cell cytotoxicity assay (CellTiter-Glo)
- particulars: Chinese hamster, ldlA[mSR-BI] cells
property measured: IC50 at 24 h

Exam item: Name the reported IC50 at 24 h value associated with the compound C[C@H](C(=O)NC1CCCC1)N(C(=O)Cn1nnc(-c2ccc3c(c2)OCO3)n1)C1CCCCC1 [ML279]
Marked response: > 35 µM

---

- assayed system: SR-BI (Mus musculus)
- test: Radioactive HDL uptake assay (wild type SR-BI)
- Format: cell-based, murine
- Parameters: expressed in transfected cells; host or cells: ldlA[mSR-BI], Chinese hamster ovary (CHO) cells lacking LDL receptor (Krieger Laboratory)
- particulars: [3H]cholesteryl ester HDL; read-out: IC50 in nonfluorescent, radiolabeled version of the uptake assay
property measured: pIC50
Schema: pIC50 number; meaning minus log10 of the concentration expressed in molar units.

Exam item: For the compound C[C@H](C(=O)NC1CCCC1)N(C(=O)Cn1nnc(-c2ccc3c(c2)OCO3)n1)C1CCCCC1 , what pIC50 is on record?
Marked response: 6.00

---

- test: Plasma protein binding
- Assay type: in vitro ADME
- particulars: human plasma; read-out: plasma protein binding (PPB), bound (converted)
property measured: fraction unbound
Number only, no unit.

Exam item: Query (compound): C[C@H](C(=O)NC1CCCC1)N(C(=O)Cn1nnc(-c2ccc3c(c2)OCO3)n1)C1CCCCC1 ; field requested: fraction unbound
Marked response: 0.235

---

- test: Solubility in PBS
- Assay type: physicochemical
- particulars: phosphate buffered saline, 23 °C, pH 7.4, aqueous buffer, kinetic from dmso stock, PBS pH 7.4, 23° C., 1% DMSO
property measured: solubility (µM)
Entry rule: numbers only, all in µM.

Exam item: // query solubility value for entry C[C@H](C(=O)NC1CCCC1)N(C(=O)Cn1nnc(-c2ccc3c(c2)OCO3)n1)C1CCCCC1
Marked response: 28

---

- test: Cell cytotoxicity assay (CellTiter-Glo)
- particulars: Chinese hamster, ldlA[mSR-BI] cells
- Protocol: It is possible that a compound will cause cells to decrease HDL-mediated DiI uptake due to nonspecific consequences of cellular toxicity, representing a second class of false positive hits. The cells were treated with compounds for 3 hours or 24 hours, and then cell viability was measured using the CellTiter-Glo Assay (Promega), a luciferase-based reagent that measures cellular ATP levels. The compounds were tested at different concentrations to determine IC50 values. […]
property measured: EC50 at 24 h

Exam item: // lookup EC50 at 24 h for C[C@H](C(=O)NC1CCCC1)N(C(=O)Cn1nnc(-c2ccc3c(c2)OCO3)n1)C1CCCCC1
Marked response: > 35 µM

---

- assayed system: murine SR-BI, isoform 1 (Mus musculus, UniProt Q61009)
- Construct: expressed in transfected cells; host or cells: ldlA[mSR-BI], Chinese hamster ovary (CHO) cells lacking LDL receptor (Krieger Laboratory)
- Sequence (Q61009 whole entry, canonical isoform): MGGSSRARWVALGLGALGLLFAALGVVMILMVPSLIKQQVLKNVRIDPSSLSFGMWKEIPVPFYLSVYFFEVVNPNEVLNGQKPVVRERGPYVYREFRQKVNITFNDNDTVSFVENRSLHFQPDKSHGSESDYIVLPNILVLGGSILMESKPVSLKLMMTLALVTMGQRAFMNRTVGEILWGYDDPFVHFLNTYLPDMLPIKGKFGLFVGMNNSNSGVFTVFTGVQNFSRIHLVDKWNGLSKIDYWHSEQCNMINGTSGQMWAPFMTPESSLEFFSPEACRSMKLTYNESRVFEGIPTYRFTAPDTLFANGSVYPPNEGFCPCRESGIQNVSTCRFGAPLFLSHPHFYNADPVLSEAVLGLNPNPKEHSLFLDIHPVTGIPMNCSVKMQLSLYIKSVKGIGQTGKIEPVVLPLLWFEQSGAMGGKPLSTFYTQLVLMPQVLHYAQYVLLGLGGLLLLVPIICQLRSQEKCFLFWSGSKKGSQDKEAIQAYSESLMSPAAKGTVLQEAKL
- test: DiI-HDL uptake assay (primary assay)
- Type: cell-based
- particulars: ldlA[mSR-BI] cells, 3 hours with compound
Could you please mark yes (1) for values of IC50 below 10 nM and no (0) for values at or above it?

Worked examples, 4 compounds total:
COc1ccc(-c2nnn(CC(=O)N(C3CCCCC3)C(C)C(=O)NC3CCCC3)n2)cc1OC (centres unmarked) [MLS000888573, reference compound]	no (0)
COc1c(NC(=O)C(=O)c2ccc(OCCN3CCOCC3)c3ccccc23)cc(C(C)(C)C)cc1NS(C)(=O)=O	no (0)
COCC(=O)N1CCc2cc(-c3csc(NC(=O)c4cc(OC)cc(OC)c4)n3)ccc21 [ML278, reference compound]	yes (1)
CCCCCCC1CCCC1=NNC(N)=S (centres unmarked) [BLT-1, reference compound]	no (0)

Now for a further compound.
Exam item: IC50 strictly < 10 nM for this compound? C[C@@H](C(=O)NC1CCCC1)N(C(=O)Cn1nnc(-c2ccc3c(c2)OCO3)n1)C1CCCCC1 [(S)-isomer]
Marked response: no (0)
